Target: Cholinesterase (Homo sapiens, UniProt P06276)
Sequence (P06276 whole entry): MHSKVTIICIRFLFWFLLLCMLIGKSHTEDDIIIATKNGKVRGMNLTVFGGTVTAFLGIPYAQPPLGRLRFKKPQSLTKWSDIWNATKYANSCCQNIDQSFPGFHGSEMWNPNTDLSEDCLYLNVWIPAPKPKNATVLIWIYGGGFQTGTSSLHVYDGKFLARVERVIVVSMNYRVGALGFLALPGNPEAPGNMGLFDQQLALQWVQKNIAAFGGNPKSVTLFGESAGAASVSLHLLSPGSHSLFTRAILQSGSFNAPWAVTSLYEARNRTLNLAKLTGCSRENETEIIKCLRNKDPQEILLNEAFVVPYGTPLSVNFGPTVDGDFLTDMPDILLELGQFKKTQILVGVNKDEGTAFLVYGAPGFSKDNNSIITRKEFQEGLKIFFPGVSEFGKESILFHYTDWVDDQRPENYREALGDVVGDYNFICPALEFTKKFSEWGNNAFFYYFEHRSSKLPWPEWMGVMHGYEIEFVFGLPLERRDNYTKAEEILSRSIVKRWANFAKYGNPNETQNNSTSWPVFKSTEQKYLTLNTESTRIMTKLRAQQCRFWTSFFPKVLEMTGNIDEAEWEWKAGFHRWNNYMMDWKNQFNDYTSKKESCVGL
// classify: if (IC50 < 0.8 µM) Fulfilled else Not fulfilled

Reference set (5 entries):
- COMPOUND: "CCOC(=O)CC1OP(=O)(OCC2C=CC(n3cc(C)c(=O)[nH]c3=O)O2)Oc2cccc(Cl)c21 (stereo not drawn)"
  MEASUREMENT_TARGET: "Cholinesterase (Homo sapiens, UniProt P06276)"
  DISCRETE_LABEL: "Not fulfilled"
- COMPOUND: "COc1ccc2c(c1)CO[P@](=O)(OC[C@@H]1C=C[C@H](n3cc(C)c(=O)[nH]c3=O)O1)O2"
  MEASUREMENT_TARGET: "Cholinesterase (Homo sapiens, UniProt P06276)"
  DISCRETE_LABEL: "Not fulfilled"
- COMPOUND: "Cc1cn(C2C=CC(COP3(=O)OCc4cccc(CCC(=O)O)c4O3)O2)c(=O)[nH]c1=O (stereo not drawn)"
  MEASUREMENT_TARGET: "Cholinesterase (Homo sapiens, UniProt P06276)"
  DISCRETE_LABEL: "Not fulfilled"
- COMPOUND: "Cc1cccc2c1OP(=O)(OCC(CO)CCn1cnc3c(O)nc(N)nc31)OC2 (stereo not drawn)"
  MEASUREMENT_TARGET: "Cholinesterase (Homo sapiens, UniProt P06276)"
  DISCRETE_LABEL: "Not fulfilled"
- COMPOUND: "Cc1cn(C2C=CC(COP3(=O)OCc4cc5ccccc5cc4O3)O2)c(=O)[nH]c1=O (stereo not drawn)"
  MEASUREMENT_TARGET: "Cholinesterase (Homo sapiens, UniProt P06276)"
  DISCRETE_LABEL: "Fulfilled"

**Query** Please let me know if Cc1cccc2c1OP(=O)(OC[C@@H]1C=C[C@H](n3cc(C)c(=O)[nH]c3=O)O1)OC2 (stereo partly drawn) shows IC50 below 0.8 µM.
**Result** Not fulfilled

**Query** Please let me know if Cc1cccc2c1O[P@](=O)(OC[C@H]1OC(n3cc(F)c(=O)[nH]c3=O)C[C@@H]1O)OC2 (single isomer, unassigned) shows IC50 below 0.8 µM.
**Result** Not fulfilled

**Query** Please let me know if Cc1cccc2c1O[P@@](=O)(OC[C@@H](CO)OCn1cnc3c(O)nc(N)nc31)OC2 shows IC50 below 0.8 µM.
**Result** Not fulfilled

**Query** Please let me know if Cc1cn([C@H]2C=C[C@@H](COP3(=O)OCc4ccccc4O3)O2)c(=O)[nH]c1=O (stereo partly drawn) shows IC50 below 0.8 µM.
**Result** Fulfilled

**Query** Please let me know if Cc1cccc2c1OP(=O)(OCC1OC(n3cc(C)c(=O)[nH]c3=O)CC1N=[N+]=[N-])OC2 (stereo not drawn) shows IC50 below 0.8 µM.
**Result** Not fulfilled

**Query** Please let me know if Cc1cn(C2C=CC(COP3(=O)OCc4cc(C(C)(C)C)ccc4O3)O2)c(=O)[nH]c1=O (stereo not drawn) shows IC50 below 0.8 µM.
**Result** Not fulfilled

**Query** Please let me know if Cc1cccc2c1O[P@](=O)(OC[C@@H]1C=CC(n3cc(C)c(=O)[nH]c3=O)O1)OC2 (single isomer, unassigned) shows IC50 below 0.8 µM.
**Result** Fulfilled

**Query** Please let me know if Cc1cn(C2C=CC(COP3(=O)OCc4cccc(-c5ccccc5)c4O3)O2)c(=O)[nH]c1=O (stereo not drawn) shows IC50 below 0.8 µM.
**Result** Fulfilled
